System: MALME-3M melanoma
experiment description: NCI tumour cell line growth inhibition, 48 h
measurement name: TGI

- COc1cc2[nH]c(-c3cccc(N(C)C)c3)cc(=O)c2cc1OC: > 100 µM
- O=C(c1ccccc1)c1c(C(=O)c2ccccc2)c(-c2ccccc2)c2c(-c3ccccc3)sc(-c3ccccc3)c2c1-c1ccccc1: > 100 µM

Proceed to the following item.
Returns the measured TGI for the input compound. Input: CCOC(=O)C(C)c1cc(C2(C)OCCO2)c(C)o1 (stereo not drawn)
> 100 µM

###

Test system: NCI-H460 lung
experiment description: NCI tumour cell line growth inhibition, 48 h
Listing of entries alongside the reported GI50.

Quick check: GI50 of O=C1C=Cc2ccccc2/C1=C/c1[nH]c(=O)[nH]c1O ?
9.71 µM

###

System: MOLT-4 leukemia
experiment description: NCI tumour cell line growth inhibition, 48 h
measurement name: TGI

Look over these answered cases.
• CSc1cc(Cl)c(C)cc1S(=O)(=O)NC(=O)NNc1ccc(F)c(Cl)c1 = > 100 µM
• [N-]=[N+]=NC1C(Br)C(=O)NC(=O)N1[C@H]1C[C@H](O)[C@@H](CO)O1 (stereo partly drawn) = > 100 µM

// moving on: another record for TGI
What value of TGI has been reported for the following compound? O=c1c2cccnc2nc2ccc3c[nH][nH]c3c12
> 10 µM

###

Measured TGI, listed per entry.
Test system: MOLT-4 leukemia
experiment description: NCI tumour cell line growth inhibition, 48 h

Guide cases for TGI, answers given:
* CCOC(=O)C1C(=O)c2ccccc2CN1Cc1ccccc1 (stereo unspecified) | > 100 µM
* S=C1N(c2ccc(Cl)cc2)C2=C(N=Nc3ccccc3)C(=Nc3ccccc3S2)N1c1ccccn1 | 31.7 µM
* Cc1cc2oc(=O)[nH]c(=S)c2c(C)c1C | > 100 µM
* COc1ccc(/C=C\c2cc(OC)c(OC)c(OC)c2)cc1OCC(=O)Nc1nc2ccc(C(F)(F)F)cc2s1 | > 100 µM

Query: TGI; subject: CC(C)/C=N\n1c(N)c(C#N)c(C#N)c1C(C)C
63.4 µM

Quick check: TGI of CC1(C)N=C(N)N=C(N)N1c1cc(Cl)ccc1Cl ?
> 100 µM

###

Reported TGI by item:
Tested on: ACHN renal
experiment description: NCI tumour cell line growth inhibition, 48 h

// worked examples, TGI included
- Cc1cc(Cl)ccc1N=NC(=O)NNc1ccc(Cl)cc1C: 40.3 µM
- O=P(O)(Cc1ccccc1)OCC1(O)OCC(O)C(O)C1O (centres undefined): > 10 µM

What measured TGI goes with CC(=O)c1ccc2c(c1)oc(=O)n2CCN1CCCCC1 ?
> 100 µM

So what does the record say about TGI for CCOC(=O)n1cncc1CC(NC(=O)Cc1c(C(=O)C=C(C)C)[nH]c2ccccc12)C(=O)OC (centres undefined) ?
36 µM

Which value of TGI has been reported for O=C(CCCn1ccnc1[N+](=O)[O-])NCCn1ccnc1 in the records?
> 100 µM

Entry COc1c(O)ccc2c1CN1CCc3cc4c(cc3C1C2)OCO4 (centres undefined) : reported TGI = ?
> 79 µM

Request the reported TGI associated with N#CS/C(Cl)=C(/C(Cl)=C(Cl)Cl)[N+](=O)[O-]
> 100 µM

What value of measured TGI is listed for COc1ccc2ccc([Se]c3ccc4ccc(OC)cc4c3)cc2c1 ?
> 100 µM

For CN(C)CCO/N=C1/C=C2CC[C@H]3[C@@H]4CC[C@H](O)[C@@]4(C)CC[C@@H]3[C@@]2(C)CC1 , what is its reported TGI?
40.9 µM

Dear colleague, I am looking for the recorded TGI of the following compound: CCCCCCCCCCCCCCCCP(=O)(O)OP(=O)(O)OCC1OC(n2cnc3c(N)ncnc32)C(O)C1O (centres undefined)
62.1 µM

###

Test system: RPMI-8226 leukemia
experiment description: NCI tumour cell line growth inhibition, 48 h; in the data active means GI50 below about 0.43 µM; inactive means the rest
Reply using exactly one outcome from yes (1) = active, no (0) = inactive

Sample answers from the record:
• CCN(CC)CCCCCCCNc1c2ccc(Cl)cc2nc2ccc(OC)cc12 = yes (1)
• C[N+](C)(CCCCCC[N+](C)(C)CCCN1C(=O)c2cc3ccccc3cc2C1=O)CCCN1C(=O)c2ccccc2C1=O = no (0)
• CC[N+](CC)(CC)CCCn1c2c(c3ccccc3c1=O)C(=O)c1ccccc1-2 = no (0)
• C=C(CN1CCc2ccccc2C1)c1ccc(C(=O)Nc2ccc(N)cc2)cc1 = no (0)
• Cc1[nH]c(/C=C2\C(=O)Nc3ccc(F)cc32)c(C)c1C(=O)NC[C@H](O)CN1CCOCC1 = no (0)
• Fc1ccc(-c2ccc(-c3nnc(-c4cc(F)c(Cl)cc4Cl)o3)o2)cc1Cl = no (0)
• O=C1CCC2(C=C(Br)C(=O)C(Br)=C2)O1 = no (0)
• C[C@]12CC[C@@H]3c4ccc(O)cc4CC[C@H]3[C@@H]1CC[C@@H]2NS(=O)(=O)Cc1ccc(Cl)cc1 = no (0)
• CN(C)CCCNC(=O)c1cc(NC(=O)c2cc(NC(=O)c3cc(NC(=O)CCc4c[nH]c5ccccc45)cn3C)cn2C)cn1C = no (0)
• Nc1ccccc1C#C/C=C\C#Cc1ccc(Cl)cc1Cl = no (0)

Read the next record carefully.
Field: outcome | Entry: [N-]=[N+]=NC1C(Br)C(=O)NC(=O)N1[C@H]1C[C@H](O)[C@@H](CO)O1 (some centres undefined)
no (0)

###

# TGI listing for each entry below
Test system: SF-268 CNS
experiment description: NCI tumour cell line growth inhibition, 48 h

Sample records with TGI:
* O=C1C=Cc2ccccc2/C1=C/c1[nH]c(=O)[nH]c1O | > 100 µM
* COc1ccc(SC(C)(SC)c2ccccn2)c(OC)n1 (stereo unspecified) | > 100 µM
* S=C(N/N=C/c1ccccn1)Nc1ccccn1 | > 100 µM

So what's the measured TGI for this one? O=C1CCC2SC1CCC2=O
> 100 µM

# query: TGI of entry CCOC(CN=c1nc(N(C)C)ss1)OCC
59.8 µM

Looking for the measured TGI of COC(=O)[C@H](Cc1ccccc1)NC(=O)N1CCN(C(=O)N[C@@H](Cc2ccccc2)C(=O)OC)CCN(C(=O)N[C@@H](Cc2ccccc2)C(=O)OC)CC1 , can you help?
> 100 µM

Which value of TGI has been reported for COC[n+]1cc2cc(OC)c(OC)cc2c2ccc3cc(OC)c(OC)cc3c21 in the records?
> 100 µM

# TGI lookup, item COc1c(O)ccc2c1CN1CCc3cc4c(cc3C1C2)OCO4 (stereo unspecified)
> 100 µM

Can you look up the measured TGI of COc1nc(C)cc2c(=O)n(-c3ccccc3)n(CCCN3CCN(c4ccc(Cl)cc4)CC3)c(=O)c12 for me?
> 50 µM

Could you share which TGI value was measured for O=C1C(=O)N(c2ccc(Cl)c(Cl)c2)C(=O)C(=O)C1c1nc2ccccc2o1 ?
> 100 µM

Any idea what TGI was measured for O=C(c1ccncc1)n1nc(-c2ccccc2)c(N=Nc2ccc([N+](=O)[O-])cc2)c1-c1ccccc1 ?
> 100 µM

# query: TGI of entry O=[N+]([O-])c1cccc2nccc(NCC(O)CO)c12 (stereo unspecified)
67.9 µM

Using the record for Nc1ccccc1C#C/C=C\C#Cc1ccc(Cl)cc1Cl , report its TGI.
23.7 µM

# TGI lookup, item O=C(CCCn1ccnc1[N+](=O)[O-])NCCn1ccnc1
> 100 µM

GET /values?readout=TGI&item= Cc1ccc2c(N)c(C(=O)N[C@H]3CCc4cc(N5CC6CCC(C5)N6)ccc4C3)sc2n1
2.51 µM

###

System: SK-MEL-2 melanoma
experiment description: NCI tumour cell line growth inhibition, 48 h
measurement name: TGI

Examples with answers:
* CC(=O)OCC1OC(n2c(=O)n(-c3ccccc3)c(=O)c3ccccc32)C(OC(C)=O)C(OC(C)=O)C1OC(C)=O (centres undefined) | > 100 µM
* CC1(C)OCC(C2OC(N3O[C@H](CI)C[C@@H]3c3ccccc3)C3OC(C)(C)OC23)O1 (some centres undefined) | > 100 µM
* CCCCCCCCCCCCCCCCP(=O)(O)OP(=O)(O)OCC1OC(n2cnc3c(N)ncnc32)C(O)C1O (centres undefined) | > 100 µM
* COC(=O)CC1C(=O)OCc2c1cc1n(c2=O)Cc2c-1nc1ccccc1c2OC (centres undefined) | > 100 µM
* O=C1C=Cc2ccccc2/C1=C/c1[nH]c(=O)[nH]c1O | 8.71 µM

Reported TGI, compound O=C(Cc1ccccc1)c1ccc2[nH]c(=O)oc2c1 : ____
> 100 µM

Data request, read-out TGI, for O=C1CCC2SC1CCC2=O
> 100 µM

Please report the recorded TGI for CS(=O)c1ccc(COP(N)(=O)N(CCCl)CCCl)cc1 (centres undefined) .
> 100 µM

# query: TGI of entry Cc1c2c(n(CCc3ccccc3)c1C)NN=C(C#N)S2(=O)=O
> 100 µM

Look up TGI for this compound: COc1ccc(-c2cn[nH]c2-c2cc(OC)c(OC)c(OC)c2)cc1N
> 100 µM

Can you look up the measured TGI of O=S(=O)(O)c1c(N=Nc2c(O)ccc3ccccc23)ccc2ccccc12 for me?
> 100 µM

I am curious: what TGI value has been reported for Nc1ccccc1C#C/C=C\C#Cc1ccc(Cl)cc1Cl ?
70.1 µM

Could you share which TGI value was measured for CCOC(=O)C1C(=O)c2ccccc2CN1Cc1ccccc1 (centres undefined) ?
> 100 µM

Consider the compound O=C(/C=C/c1ccc(O)cc1)NCCc1ccc(O)cc1 and give its measured TGI.
> 12.5 µM
